Assay: NCI Yeast Anticancer Drug Screen. Data for the mlh1 rad18 strain (AID 175)
Details: S. cerevisiae mlh1 rad18 strain growth inhibition; at 50.0 µM (retest, dose inferred, filed as 5.0); active compounds read high
About 79,000 compounds went through this panel and 15% of them were active in at least one assay; those are over-represented in the sample as a whole.
Decide using growth inhibition: a value greater than or equal to 70% is Criterion met, a smaller one is Criterion not met.

Worked cases, answers included:
[[record]]
compound = "Cc1cc(N)c(C)c2c1[nH]c1ccc(Br)cc12"
assigned_class = "Criterion met"

[[record]]
compound = "O=C(N/C(=C\\c1ccc(/C=C(\\NC(=O)c2ccccc2)c2nc3ccccc3s2)cc1)c1nc2ccccc2s1)c1ccccc1"
assigned_class = "Criterion not met"

[[record]]
compound = "Cc1cccc(/C=N/NC(=S)Nc2ccc(Cl)cc2)n1"
assigned_class = "Criterion met"

[[record]]
compound = "COc1ccc(/C=C2\\C(=O)N(C)C(=O)c3cc(OC)c(OC)cc32)cc1OC"
assigned_class = "Criterion not met"

[[record]]
compound = "O=c1c2cc(Br)ccc2ncn1COCc1ccccc1"
assigned_class = "Criterion not met"


INPUT: Please indicate if the recorded growth inhibition for CCc1ccccc1NC(=O)C(C#N)C1=C(Cl)C(=O)c2ccccc2C1=O (configuration not stated) meets or exceeds 70%.
OUTPUT: Criterion met

INPUT: Please indicate if the recorded growth inhibition for "Nc1ncnc2nc(-c3ccc(C[P+](c4ccccc4)(c4ccccc4)c4ccccc4)cc3)[nH]c12" meets or exceeds 70%.
OUTPUT: Criterion met

INPUT: Please indicate if the recorded growth inhibition for "Cc1cc(N(CCCCl)CCCCl)ccc1C=Nc1cccc(Cl)c1" meets or exceeds 70%.
OUTPUT: Criterion not met

INPUT: Please indicate if the recorded growth inhibition for "NC(N)=Nc1ccc(Cc2ccc(N=C(N)N)cc2)cc1" meets or exceeds 70%.
OUTPUT: Criterion not met

INPUT: Please indicate if the recorded growth inhibition for "CNc1ccc(N=O)cc1" meets or exceeds 70%.
OUTPUT: Criterion met

INPUT: Please indicate if the recorded growth inhibition for O=C(O)c1ccccc1NC(c1ccccc1)c1ccc2cccnc2c1O (configuration not stated) meets or exceeds 70%.
OUTPUT: Criterion met

INPUT: Please indicate if the recorded growth inhibition for "COc1ccc2c(c1)CCCN2CCCCCCCCCN1CCCCC1" meets or exceeds 70%.
OUTPUT: Criterion not met

INPUT: Please indicate if the recorded growth inhibition for "CC(C)(C[NH-])C[NH-].[Cl][Pt+2]([Cl])([Cl])[Cl]" meets or exceeds 70%.
OUTPUT: Criterion met

INPUT: Please indicate if the recorded growth inhibition for "C[Si](C)c1cccc(Cl)c1" meets or exceeds 70%.
OUTPUT: Criterion not met

INPUT: Please indicate if the recorded growth inhibition for "CCN(CC)C(=S)Nc1ccc(Cl)cc1" meets or exceeds 70%.
OUTPUT: Criterion met

INPUT: Please indicate if the recorded growth inhibition for "CCc1cccc(C)c1NC(=O)/C(Cl)=C(\Cl)C(=O)O" meets or exceeds 70%.
OUTPUT: Criterion met

INPUT: Please indicate if the recorded growth inhibition for "CC(=O)Nc1ccc(N=C2c3ccccc3-c3ccc(NC(C)=O)cc32)cc1" meets or exceeds 70%.
OUTPUT: Criterion not met

INPUT: Please indicate if the recorded growth inhibition for "CCNC(=O)NNc1ncnc2c1c(-c1ccc(Cl)cc1)cn2-c1ccc(C)cc1" meets or exceeds 70%.
OUTPUT: Criterion met

INPUT: Please indicate if the recorded growth inhibition for CCCCCCCCCCCCCCCCCC[n+]1ccc(C(C)CC)cc1 (configuration not stated) meets or exceeds 70%.
OUTPUT: Criterion met

Reference for the values: PubChem BioAssay (NCI)
